test system: HeLa; assay: In vitro anticellular activity expressed as inhibitory concentration for the growth of HeLa S3 cells for a period of 72 hour; format: functional, cell-based; details: Homo sapiens
READOUT: IC50

Data point: `COC(=O)c1c(C)[nH]c2c1[C@@]13C[C@@H]1CN(C(=O)/C=C/c1ccc(C)cc1)C3=CC2=O` ; IC50 = 2.3 nM

Data point: `COC(=O)c1c(C)[nH]c2c1[C@@]13C[C@@H]1CN(C(=O)/C=C/c1ccc(OC)c(N(C)C)c1)C3=CC2=O` ; IC50 = 0.92 nM

Data point: `COC(=O)c1c(C)[nH]c2c1[C@@]13C[C@@H]1CN(C(=O)/C=C/c1ccc(OC)c(OCCCN)c1)C3=CC2=O` ; IC50 = 1.4 nM
